- Test system: HS 578T breast
- measurement_notes: NCI tumour cell line growth inhibition, 48 h
Parameter TGI: see the listing below.

Example results:
# compound, study_target, TGI
measured = [
    ("Cc1cc2c(c(C(=O)NCC(=O)O)c1)Oc1c(cc(C)cc1C(=O)NCC(=O)O)S2", "HS 578T breast", "> 100 µM"),
    ("Cc1nc(NS(=O)(=O)c2ccc(NCN3C(=O)c4ccccc4C3=O)cc2)oc1C", "HS 578T breast", "> 100 µM"),
    ("CCOC(=O)C1CCC(=O)N1C(=O)c1cccc(Cl)c1 (stereo not given)", "HS 578T breast", "> 100 µM"),
]

Recorded TGI for COc1cc(S(=O)(=O)Nc2ccc(-c3csc(N4C(=O)C(Cl)C4c4ccccc4O)n3)cc2)ccc1Cl (stereo not given) , please?
> 100 µM

Also COc1ccc2nc(C)cc(Sc3nc4ccccc4s3)c2c1 ?
3.57 µM

Also CC(C)[P+](c1ccccc1)(c1ccccc1)c1ccccc1 ?
> 100 µM

Also CC(OP(=O)(O)O)C(N)C(=O)O (stereo not given) ?
> 100 µM

Also CCCC1=C(OC)C(=O)c2c(C)cc(Cl)nc2C1=O ?
> 47 µM

Also O=C1CS/C(=N/S(=O)(=O)c2ccc(N3N=C4c5ccccc5CC4C3c3cccs3)cc2)N1C(=O)c1ccccc1 (stereo not given) ?
> 100 µM

Also Cc1nc2ccc(Br)cc2c(=O)n1-c1ccc(N)cc1 ?
> 100 µM

Also COc1cccc(NC(=O)CC(=O)n2nc(-c3ccccc3)c(N=Nc3ccc(Cl)cc3)c2-c2ccccc2)c1 ?
> 82.3 µM

Also Oc1ccc2ccccc2c1OCc1nnc(CCCCCCCCc2nnc(COc3c(O)ccc4ccccc34)n2Nc2ccccc2)n1Nc1ccccc1 ?
65.2 µM

Also CC(CCc1nc2ccccc2s1)(c1ccc(O)cc1)c1ccc(O)cc1 ?
52.9 µM

Also COC(=O)CC1(O)C=CC(=O)C=C1 ?
39.4 µM

Also Cc1ccc2oc(=O)c3c(O)c4cccc(OC5OC(C)C6O[C@@H](c7ccccc7)OC6C5OC5OC(C)C(O)C(O)C5O)c4c4oc(=O)c1c2c34 (stereo not given in full) ?
1.97 µM

Also Cc1nc(C)c(N2CCN(CN)CC2)c(=O)[nH]1 ?
> 100 µM

Also CC(=O)c1c[nH]c2ccc(-c3ccnc(Nc4ccc(NC(=O)C5CCCC5)c(CN5CCOCC5)c4)n3)cc12 ?
0.105 µM

Also O=C1Nc2cccc(Cl)c2/C1=C\c1c(-c2ccccc2)nc2n1CCS2 ?
61.4 µM

Also O=c1cc(-c2ccccc2)oc2c1ccc1[nH]c3ccccc3c(=O)c12 ?
> 100 µM

Also O=C1C=CC(=O)c2c(O)c(N3CCOCC3)c(Cl)c(O)c21 ?
1.7 µM

Also Clc1ccc(-c2nn3c(COc4cccc(OCc5nnc6sc(-c7ccc(Cl)cc7)nn56)c4)nnc3s2)cc1 ?
> 100 µM

Also COc1cc(S(=O)(=O)Nc2nc(-c3ccc(N4C(=O)C(C)SC4c4ccccc4O)cc3)cs2)ccc1Cl (stereo not given) ?
> 100 µM

Also Oc1ccc(Cl)cc1-c1cc(-c2ccccc2)nc(=S)[nH]1 ?
> 100 µM

Also Cc1nn(C)c2ncnc(N/N=C/c3cccc(O)c3O)c12 ?
> 100 µM

* * *

- System: M19-MEL melanoma
- measurement_notes: NCI tumour cell line growth inhibition, 48 h
Parameter TGI: see the listing below.

# compound, TGI
records = [
    ("CC1=C(CO)C(=O)O[C@@H]([C@@H](C)[C@H]2CC[C@H]3[C@@H]4C[C@H]5O[C@]56[C@@H](O)C=CC(=O)[C@]6(C)[C@H]4CC[C@]23C)C1", "3.01 µM"),
]

Recorded TGI for CS(=O)(=O)c1ccc(COP(N)(=O)N(CCCl)CCCl)cc1 (centres undefined) , please?
> 100 µM

Also Cc1ccccc1-n1c(=S)[nH]c2c(sc(=O)n2-c2ccccc2C)c1=O ?
> 100 µM

Also Brc1cc(C2OCCCO2)ccc1OCc1ccccc1 ?
> 100 µM

* * *

- System: SK-MEL-28 melanoma
- measurement_notes: NCI tumour cell line growth inhibition, 48 h
recorded_endpoint: TGI

Example results:
# compound, study_target, recorded_endpoint, reported
records = [
    ("N#C/C(=C/N1CCN(C(=O)c2ccco2)C1=S)C(=O)Nc1ccc(Cl)cc1", "SK-MEL-28 melanoma", "TGI", "> 50 µM"),
    ("O=C1CS/C(=N/S(=O)(=O)c2ccc(N3N=C4c5ccccc5CC4C3c3cccs3)cc2)N1C(=O)c1ccccc1 (stereo not given)", "SK-MEL-28 melanoma", "TGI", "> 100 µM"),
]

Recorded TGI for CCCCCCCCCCCNC=O , please?
> 100 µM

Also CC(C)OP(=O)(OC(C)C)C(C(C)C)N(C)C(N)=NC#N (stereo not given) ?
> 100 µM

Also COC(=O)C(=O)C(C(=O)C(=O)Nc1ccccc1[N+](=O)[O-])c1nc2ccc([N+](=O)[O-])cc2[nH]c1=O (stereo not given) ?
> 100 µM

Also CSc1nnc(SCc2nn3c(=O)cc(C)nc3s2)s1 ?
> 100 µM

Also O=C1C=C(N2CCN(c3ncccn3)CC2)C(=O)c2c(O)ccc(O)c21 ?
> 100 µM

Also Cc1ccc(-n2nncc2[Si](C)(C)C)s1 ?
> 100 µM

Also O=C1C=CC2(O[C@H](C3CCCCC3)[C@@H](C3CCCCC3)O2)C(SC(=O)c2ccccc2)C1 (stereo not given in full) ?
3.15 µM

Also CCC1CCCCN1CC(C(C)=O)C(c1ccccc1)c1c(O)c2ccccc2oc1=O (stereo not given) ?
> 100 µM

* * *

- Tested on: K-562 leukemia
- measurement_notes: NCI tumour cell line growth inhibition, 48 h; in the data active = GI50 below about 0.43 µM; inactive = the rest
Just give me one of these, please: yes (active), no (inactive)

Example results:
# molecule, answer_label
records = [
    ("CN1CCN(Cc2ccc(NC(=O)c3[nH]ncc3Nc3ncnc4[nH]ccc34)cc2)CC1", "yes"),
    ("CCN1CCN(c2cc(C(=O)Nc3cccc(Nc4ccc5c(OC)cccc5n4)c3)cc(C(F)(F)F)c2)CC1", "no"),
    ("FC(F)c1ncc(-c2ccc(C(F)(F)F)cc2)c(NC2CCCCCC2)n1", "no"),
]

Called result for COc1ccc2nc(C)cc(Sc3nc4ccccc4s3)c2c1
no

Also CC(C)C[C@H](NC(=O)Cn1cccc(CNC(=O)c2ccccc2)c1=O)B(O)O ?
no

* * *

- System: OVCAR-5 ovarian
- measurement_notes: NCI tumour cell line growth inhibition, 48 h
Parameter GI50: see the listing below.

# compound, GI50
data = [
    ("O=C1CS/C(=N/S(=O)(=O)c2ccc(N3N=C4c5ccccc5CC4C3c3cccs3)cc2)N1C(=O)c1ccccc1 (configuration not stated)", "32.2 µM"),
    ("Cc1c(Nc2nccc3cc(CN4CC[C@@H](O)C4)cnc23)cccc1-c1cccc(-c2nc3cc(CN4CC[C@@H](C(=O)O)C4)cc(C#N)c3o2)c1C", "53.7 µM"),
    ("COc1ccc(Nc2ncnc3ccc(-c4cncc(NS(C)(=O)=O)c4)cc23)cc1Cl", "2.87 µM"),
    ("CCOC(=O)c1c(-c2ccccc2)[n+](=O)c2cc(F)c(F)cc2n1[O-]", "2.23 µM"),
    ("COc1cc(/C=C/C(=O)CC(=O)/C=C/c2cc(OC)c(O)c(OC)c2)cc(OC)c1O", "27.1 µM"),
]

Recorded GI50 for Cc1nn(C)c2ncnc(N/N=C/c3cccc(O)c3O)c12 , please?
4.06 µM

Also CN1CCN(CCCOc2ccc3nc(Nc4ccc(F)c(F)c4)ccc3c2)CC1 ?
2.26 µM

Also CC(C)[P+](c1ccccc1)(c1ccccc1)c1ccccc1 ?
28.5 µM

Also CC(=O)c1c[nH]c2ccc(-c3ccnc(Nc4ccc(NC(=O)C5CCCC5)c(CN5CCOCC5)c4)n3)cc12 ?
0.0296 µM

Also NC1=NC(SCc2ccccc2CCl)c2ncn(Cc3ccccc3CCl)c2N1 (configuration not stated) ?
2.7 µM

Also O=c1cc(-c2ccccc2)[nH]c2c1CCCC2 ?
14.8 µM

Also CCCCCCCC(=O)[O-].CCCCCCCC(=O)[O-].N.N.N.N.[Co+3].[O-][Cl+3]([O-])([O-])[O-] ?
> 100 µM

* * *

- System: HCT-15 colon
- measurement_notes: NCI tumour cell line growth inhibition, 48 h
Parameter TGI: see the listing below.

# molecule, reported
rows = [
    ("Cc1nc2ccc(Cl)cc2c2c1CCO2", "> 100 µM"),
    ("COC(=O)[C@@H](NS(=O)(=O)CC12CCC(CC1)C2(C)C)C(C)(C)C", "> 100 µM"),
    ("COc1cc(OC)c2c(=O)cc(-c3ccccc3OCc3ccccc3)oc2c1OC", "> 100 µM"),
    ("CC(OP(=O)(O)O)C(N)C(=O)O (stereo unspecified)", "> 100 µM"),
    ("Cc1nc(NS(=O)(=O)c2ccc(NCN3C(=O)c4ccccc4C3=O)cc2)oc1C", "> 100 µM"),
    ("Cc1cc(C)c2c(c1)C/C(=C\\c1cccc(C)c1C(=O)O)C2=O", "> 100 µM"),
]

Recorded TGI for CC1=C(CO)C(=O)O[C@@H]([C@@H](C)[C@H]2CC[C@H]3[C@@H]4C[C@H]5O[C@]56[C@@H](O)C=CC(=O)[C@]6(C)[C@H]4CC[C@]23C)C1 , please?
1.94 µM

Also Nc1nc(Cl)nc2c1ncn2C1OC(CO)C(O)C1F (stereo unspecified) ?
> 100 µM

Also O=C1CC(c2cccc(Cl)c2)Oc2ccccc21 (stereo unspecified) ?
49 µM

Also COc1cc(C)cc(C(=O)/C=C/c2ccccc2)c1O ?
40.9 µM

Also Cc1cc(=O)[nH]c(N/N=C/c2ccccc2O)n1 ?
> 100 µM
